Listed variants paired with reported protein stability index
B1: DLC1 (parent)
chain: AIQGISEKEKAEIEAKEACDWLRA

- Variants of: B1
- assay: protein stability index of a GFP-peptide fusion (GPS, HEK-293T) (PSI 1-6); higher = more stable;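 note: lentivirally expressed fusions sorted by FACS into six bins by GFP to DsRed ratio, PSI derived from sequencing read proportions per bin multiplied by bin number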
- settings: c terminus: a fixed tail appended
endpoint: protein stability index

INSERT INTO measurements (change, result) VALUES
  ('A15I', 3.91),
  ('E12M', 3.98),
  ('K8S', 3.98),
  ('I13F', 3.94),
  ('E9S', 4.22),
  ('Q3N', 3.77),
  ('Q3T', 4.81),
  ('Q3Y', 3.47),
  ('E7R', 3.62);
